test-name: chemical genetic growth profiling, strain panel (AID 1159580);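 also: tested at 20 µM; growth read once vehicle control cultures reached saturation at 30 °C; 1 = growth at the plate median or of vehicle wells; lower values mean less growth of the strain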
particulars: S. cerevisiae deletion strains, growth OD, locus YLR027C, strain aat2, stronger effect = lower value
Among all 5,500 compounds or so, about 2,000 (36%) were called active. Not shown: some 18% with an inconclusive outcome. This is one part of the list.
endpoint-label: normalized growth

[[record]]
molecule = "CCCCOC(=O)c1ccccc1C(=O)OCCCC"
endpoint_label = "normalized growth"
value_observed = 0.974

[[record]]
molecule = "C=C1C(=O)OC2CC1C(OC(C)=O)C/C(C)=C/CC/C(C)=C/CC[C@]2(C)O (stereo partly drawn)"
endpoint_label = "normalized growth"
value_observed = 1.01

[[record]]
molecule = "O=c1cc(-c2ccccc2O)oc2cc(O)ccc12"
endpoint_label = "normalized growth"
value_observed = 0.998

[[record]]
molecule = "COc1ccc(CCN2CCC(Nc3nc4ccccc4n3Cc3ccc(F)cc3)CC2)cc1"
endpoint_label = "normalized growth"
value_observed = 0.978

[[record]]
molecule = "CCCOc1ccc(C(=O)OCCN(CC)CC)cc1N"
endpoint_label = "normalized growth"
value_observed = 1

[[record]]
molecule = "Cn1c(=O)c2[nH]cnc2n(C)c1=O"
endpoint_label = "normalized growth"
value_observed = 1.02

[[record]]
molecule = "CCCCCCOc1ccccc1C(N)=O"
endpoint_label = "normalized growth"
value_observed = 0.898

[[record]]
molecule = "COc1cc2c(cc1OC)C1Cc3ccc(OC)c(OC)c3CN1CC2 (stereo not drawn)"
endpoint_label = "normalized growth"
value_observed = 0.969

[[record]]
molecule = "CCOC(=O)c1ccc(O)cc1"
endpoint_label = "normalized growth"
value_observed = 1

[[record]]
molecule = "CC1(C)O[C@H]2[C@H](O)C[C@](O)(C(N)=O)C[C@H]2O1"
endpoint_label = "normalized growth"
value_observed = 1.03

[[record]]
molecule = "CC[C@H](C)C(=O)O[C@H]1CCC=C2C=C[C@H](C)C(CCC3C[C@@H](O)CC(=O)O3)[C@H]21 (stereo partly drawn)"
endpoint_label = "normalized growth"
value_observed = 1.01

[[record]]
molecule = "CCC(C)(C)C(=O)O[C@H]1C[C@@H](C)C=C2C=C[C@H](C)[C@H](CC[C@@H]3C[C@@H](O)CC(=O)O3)[C@H]21"
endpoint_label = "normalized growth"
value_observed = 0.976

[[record]]
molecule = "CCCCNc1ccc(C(=O)OCCN(C)C)cc1"
endpoint_label = "normalized growth"
value_observed = 1.01

[[record]]
molecule = "O=C(O)CN(CC(=O)O)Cc1cc2c(-c3ccccc3C(=O)O)c3cc(CN(CC(=O)O)CC(=O)O)c(=O)cc-3oc2cc1O"
endpoint_label = "normalized growth"
value_observed = 0.969

[[record]]
molecule = "C[N+]1(C)C2CC(OC(=O)[C@@H](CO)c3ccccc3)CC1C1OC12 (stereo partly drawn)"
endpoint_label = "normalized growth"
value_observed = 0.982

[[record]]
molecule = "COC(=O)C[C@H]1C(C)(C)C(=O)[C@@H]2CC3=C(CC[C@]4(C)C3=CC(=O)O[C@H]4c3ccoc3)[C@@]1(C)C2=O"
endpoint_label = "normalized growth"
value_observed = 0.984

[[record]]
molecule = "C=CC(N)CCC(=O)O (stereo not drawn)"
endpoint_label = "normalized growth"
value_observed = 0.984

[[record]]
molecule = "CC1=CC2C(CC1=O)C(C)=CCC2C(C)C (stereo not drawn)"
endpoint_label = "normalized growth"
value_observed = 0.997

[[record]]
molecule = "CC1OC1P(=O)(O)O (stereo not drawn)"
endpoint_label = "normalized growth"
value_observed = 0.975

[[record]]
molecule = "CCCCC(=O)Oc1ccccc1C(=O)O"
endpoint_label = "normalized growth"
value_observed = 0.973

[[record]]
molecule = "O=C(O)CN1C(=O)c2cccc3cccc(c23)C1=O"
endpoint_label = "normalized growth"
value_observed = 0.996

[[record]]
molecule = "C=C1C(=O)O[C@@H]2C3O[C@]3(C)CC/C=C(\\C)CC[C@@H]12 (stereo partly drawn)"
endpoint_label = "normalized growth"
value_observed = 0.969

[[record]]
molecule = "CCCCN(CCCC)CCCOC(=O)c1ccc(N)cc1"
endpoint_label = "normalized growth"
value_observed = 0.996


The measured values listed here are drawn from PubChem BioAssay AID1159580.
